target: Substance-P receptor (Homo sapiens); type: cell membranes, CHO, Membrane; details: read-out: IC50; further: in other assays of this panel Not Active means under 50% inhibition at 10 µM
Sequence (P25103 whole entry): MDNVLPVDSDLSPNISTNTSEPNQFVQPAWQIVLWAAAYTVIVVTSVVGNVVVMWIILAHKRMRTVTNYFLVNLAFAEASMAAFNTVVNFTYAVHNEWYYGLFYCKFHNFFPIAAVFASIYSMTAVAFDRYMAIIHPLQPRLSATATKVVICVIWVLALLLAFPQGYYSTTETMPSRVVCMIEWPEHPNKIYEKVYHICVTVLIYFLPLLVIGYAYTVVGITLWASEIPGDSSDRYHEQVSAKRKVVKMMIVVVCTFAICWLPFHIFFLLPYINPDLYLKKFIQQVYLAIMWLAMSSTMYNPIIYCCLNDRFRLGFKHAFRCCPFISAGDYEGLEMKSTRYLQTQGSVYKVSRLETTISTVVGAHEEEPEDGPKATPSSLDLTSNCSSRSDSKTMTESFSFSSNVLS
pIC50: −log10 of the molar value.
measurement.kind: pIC50

{"compound": "Clc1ccc(COC(Cn2ccnc2)c2ccc(Cl)cc2Cl)c(Cl)c1 (stereo unspecified)", "test.result": 5.17}

###

target: Leukotriene C4 synthase (Cavia porcellus); format: tissue-based, Lung;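 further: enzyme inhibition assay of leukotriene C4 synthase, using LTA4 as the substrate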; further: in other assays of this panel Not Active means under 50% inhibition at 10 µM
Sequence (A6XA80 whole entry): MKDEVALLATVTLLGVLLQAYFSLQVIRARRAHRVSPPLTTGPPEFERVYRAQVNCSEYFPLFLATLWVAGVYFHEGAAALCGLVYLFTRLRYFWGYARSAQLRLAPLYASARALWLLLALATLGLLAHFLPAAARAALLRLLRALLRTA
measurement.kind: IC50

{"compound": "O=C(O)CCCc1cccs1", "study.target": "Leukotriene C4 synthase (Cavia porcellus)", "measurement.kind": "IC50", "test.result": "Not Active"}
{"compound": "CC(=O)OCC(=O)[C@@]12OC(C)(C)O[C@@H]1C[C@H]1[C@@H]3C[C@H](F)C4=CC(=O)C=C[C@]4(C)[C@@]3(F)[C@@H](O)C[C@@]12C [FLUOCINONIDE]", "study.target": "Leukotriene C4 synthase (Cavia porcellus)", "measurement.kind": "IC50", "test.result": "Not Active"}
{"compound": "C[C@H]1O[C@H](O[C@H]2[C@H](O)[C@@H](O)[C@@H](O[C@H]3[C@H](O)[C@@H](O)C(O)O[C@@H]3CO)O[C@@H]2CO)[C@H](O)[C@@H](O)[C@@H]1N[C@H]1C=C(CO)[C@@H](O)[C@H](O)[C@H]1O (stereo partly drawn)", "study.target": "Leukotriene C4 synthase (Cavia porcellus)", "measurement.kind": "IC50", "test.result": "Not Active"}

###

pIC50: −log10 of the molar value.
A short record of pIC50 observed with Cytochrome P450 2C9 (Homo sapiens, UniProt P11712) follows.
Sequence (P11712 whole entry): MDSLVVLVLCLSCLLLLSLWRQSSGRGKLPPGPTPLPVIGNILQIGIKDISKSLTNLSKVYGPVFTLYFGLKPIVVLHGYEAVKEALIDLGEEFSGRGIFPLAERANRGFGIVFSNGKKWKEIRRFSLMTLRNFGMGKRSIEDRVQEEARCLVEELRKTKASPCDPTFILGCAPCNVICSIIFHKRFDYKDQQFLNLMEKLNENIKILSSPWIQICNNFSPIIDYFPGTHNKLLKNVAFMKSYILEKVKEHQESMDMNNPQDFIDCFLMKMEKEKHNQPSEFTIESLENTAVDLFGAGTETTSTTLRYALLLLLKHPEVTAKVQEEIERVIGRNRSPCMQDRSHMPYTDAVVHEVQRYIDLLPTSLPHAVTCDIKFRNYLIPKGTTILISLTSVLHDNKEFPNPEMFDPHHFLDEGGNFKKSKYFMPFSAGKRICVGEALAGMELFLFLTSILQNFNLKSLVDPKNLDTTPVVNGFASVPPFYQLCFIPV
measurement.kind: pIC50

{"molecule": "Clc1ccc(COC(Cn2ccnc2)c2ccc(Cl)cc2Cl)c(Cl)c1 (stereo unspecified)", "test.result": 6.70}
{"molecule": "COc1ccc2c(c1OC)C(=O)O[C@@H]2[C@H]1c2c(cc3c(c2OC)OCO3)CCN1C", "test.result": 5.09}
{"molecule": "NNCCc1ccccc1", "test.result": 5.40}
{"molecule": "C[S+]([O-])c1ccc(-c2nc(-c3ccncc3)c(-c3ccc(F)cc3)[nH]2)cc1 (stereo unspecified)", "test.result": 6.00}
{"molecule": "CC(C)C[C@H]1C(=O)N2CCC[C@H]2[C@]2(O)O[C@](NC(=O)[C@@H]3C=C4c5cccc6[nH]cc(c56)C[C@H]4N(C)C3)(C(C)C)C(=O)N12", "test.result": 5.22}
{"molecule": "O=C(c1ccccc1F)N1CCC(Cc2ccccc2)CC1", "test.result": 5.70}

###

test: DRUGMATRIX: Glutamate, NMDA, Phencyclidine radioligand binding (ligand: [3H] TCP); format: cell membranes, Rattus norvegicus, Wistar, Cerebral cortex, Membrane; details: Not Active = under 50% inhibition at 10 µM
measurement.kind: IC50

{"molecule": "NC(=O)c1cccc(N)c1 [3-AMINOBENZAMIDE]", "test.result": "Not Active"}
{"molecule": "C[C@H]1O[C@H](O[C@H]2[C@H](O)[C@@H](O)[C@@H](O[C@H]3[C@H](O)[C@@H](O)C(O)O[C@@H]3CO)O[C@@H]2CO)[C@H](O)[C@@H](O)[C@@H]1N[C@H]1C=C(CO)[C@@H](O)[C@H](O)[C@H]1O (some centres undefined) [ACARBOSE]", "test.result": "Not Active"}
{"molecule": "CC(C)c1c(C(=O)Nc2ccccc2)c(-c2ccccc2)c(-c2ccc(F)cc2)n1CC[C@@H](O)C[C@@H](O)CC(=O)O [ATORVASTATIN]", "test.result": "Not Active"}
{"molecule": "COc1ccnc(C[S+]([O-])c2nc3ccc(OC(F)F)cc3[nH]2)c1OC (centres undefined) [PANTOPRAZOLE]", "test.result": "Not Active"}
{"molecule": "C[C@]12CC[C@@H]3c4ccc(O)cc4CC[C@H]3[C@@H]1C[C@@H](O)[C@@H]2O [ESTRIOL]", "test.result": "Not Active"}
{"molecule": "CC(=O)OC[C@H]1O[C@@H](n2ncc(=O)[nH]c2=O)[C@H](OC(C)=O)[C@@H]1OC(C)=O [AZARIBINE]", "test.result": "Not Active"}
{"molecule": "NS(=O)(=O)c1cc(C2(O)NC(=O)c3ccccc32)ccc1Cl (centres undefined) [CHLORTHALIDONE]", "test.result": "Not Active"}
{"molecule": "O=C1C[C@@H]2OCC=C3CN4CC[C@]56c7ccccc7N1[C@H]5[C@H]2[C@H]3C[C@H]46 [STRYCHNINE]", "test.result": "Not Active"}
{"molecule": "Cc1ccc(C)c(OCCCC(C)(C)C(=O)O)c1 [GEMFIBROZIL]", "test.result": "Not Active"}
{"molecule": "O=C(O)CCNC(=O)c1ccc(/N=N/c2ccc(O)c(C(=O)O)c2)cc1 [BALSALAZIDE]", "test.result": "Not Active"}
{"molecule": "CCC1=C(C)CN(C(=O)NCCc2ccc(S(=O)(=O)NC(=O)N[C@H]3CC[C@H](C)CC3)cc2)C1=O [GLIMEPIRIDE]", "test.result": "Not Active"}
{"molecule": "CCOc1nc2cccc(C(=O)O)c2n1Cc1ccc(-c2ccccc2-c2nnn[nH]2)cc1", "test.result": "Not Active"}
{"molecule": "CC(=O)Oc1ccccc1C(=O)O [ASPIRIN]", "test.result": "Not Active"}
{"molecule": "O=c1c(-c2ccc(O)cc2)coc2cc(O)cc(O)c12 [GENISTEIN]", "test.result": "Not Active"}
{"molecule": "Nc1cc(-c2ccncc2)c[nH]c1=O [INAMRINONE]", "test.result": "Not Active"}
{"molecule": "C[C@@H]1O[C@@H](O[C@H]2C[C@@H](O)[C@]3(CO)[C@H]4[C@H](O)C[C@]5(C)[C@@H](C6=CC(=O)OC6)CC[C@]5(O)[C@@H]4CC[C@]3(O)C2)[C@H](O)[C@H](O)[C@H]1O [OUABAIN]", "test.result": "Not Active"}
{"molecule": "CCN(CC)CCCC(C)Nc1c2ccc(Cl)cc2nc2ccc(OC)cc12 (centres undefined) [QUINACRINE]", "test.result": "Not Active"}
{"molecule": "O=C(O)CCCc1cccs1", "test.result": "Not Active"}
{"molecule": "CCN(CC)CCNC(=O)c1ccc(N)cc1 [PROCAINAMIDE]", "test.result": "Not Active"}
{"molecule": "CC1=NN(c2ccccc2)C(=O)C1 [EDARAVONE]", "test.result": "Not Active"}
{"molecule": "C[C@]12C=CC(=O)C=C1CC[C@@H]1[C@@H]2C(=O)C[C@@]2(C)[C@H]1CC[C@]2(O)C(=O)CO [PREDNISONE]", "test.result": "Not Active"}
{"molecule": "Cc1cc(O)cc(C)c1Cl [CHLOROXYLENOL]", "test.result": "Not Active"}
{"molecule": "CCn1cc(C(=O)O)c(=O)c2cc(F)c(N3CCNC(C)C3)c(F)c21 (centres undefined) [LOMEFLOXACIN]", "test.result": "Not Active"}
{"molecule": "CO/N=C(\\C(=O)N[C@@H]1C(=O)N2C(C(=O)O)=C(COC(C)=O)CS[C@H]12)c1csc(N)n1 [CEFOTAXIME]", "test.result": "Not Active"}
{"molecule": "COc1cccc2c1C(=O)c1c(O)c3c(c(O)c1C2=O)C[C@@](O)(C(C)=O)C[C@@H]3O[C@H]1C[C@H](N)[C@H](O)[C@H](C)O1 [DAUNORUBICIN]", "test.result": "Not Active"}
{"molecule": "Cc1ccc(C(=O)c2ccc(CC(=O)O)n2C)cc1 [TOLMETIN]", "test.result": "Not Active"}
{"molecule": "NCCCNCCSP(=O)(O)O [AMIFOSTINE]", "test.result": "Not Active"}
{"molecule": "C[C@@H]1C/C=C/C=C/C=C/C=C/[C@H](O[C@@H]2O[C@H](C)[C@@H](O)[C@H](N)[C@@H]2O)C[C@@H]2O[C@](O)(C[C@@H](O)C[C@H]3O[C@@H]3/C=C/C(=O)O1)C[C@H](O)[C@H]2C(=O)O [NATAMYCIN]", "test.result": "Not Active"}
{"molecule": "CCCNC(=O)NS(=O)(=O)c1ccc(Cl)cc1 [CHLORPROPAMIDE]", "test.result": "Not Active"}
{"molecule": "CC(=N)S [THIOACETAMIDE]", "test.result": "Not Active"}
{"molecule": "CCN(C(C)=O)c1cccc(-c2ccnc3c(C#N)cnn23)c1 [ZALEPLON]", "test.result": "Not Active"}
{"molecule": "CN(C)C(=O)Oc1cccc([N+](C)(C)C)c1.[Br-] [NEOSTIGMINE BROMIDE]", "test.result": "Not Active"}
{"molecule": "CC(C)(C)NCC(O)COc1cccc2c1CC(O)C(O)C2 (centres undefined) [NADOLOL]", "test.result": "Not Active"}
{"molecule": "CC1CCC(NC(=O)N(CCCl)N=O)CC1 (centres undefined) [SEMUSTINE]", "test.result": "Not Active"}

Values were extracted from ChEMBL document CHEMBL1909046.
